# tgt: soluble HLA-A*0201 (sHLA-A*0201) (human)
observable: IC50 (nM)
Use nM as the unit, but write only the number.

Lookup: // returns reported IC50 for input KLGEFYNQMM (modifications not checked) […]
Found: 2480

Values were extracted from patent US20140093973A1.
